target: human μ-opiate receptor (Homo sapiens, UniProt P35372); assay: Affinity for the human μ-opiate receptor ([3H]-naloxone displacement, SPA, CHO-K1 membrane preparation); type: binding; settings: read-out: μ-Opioid receptor, Ki
Sequence (P35372 whole entry): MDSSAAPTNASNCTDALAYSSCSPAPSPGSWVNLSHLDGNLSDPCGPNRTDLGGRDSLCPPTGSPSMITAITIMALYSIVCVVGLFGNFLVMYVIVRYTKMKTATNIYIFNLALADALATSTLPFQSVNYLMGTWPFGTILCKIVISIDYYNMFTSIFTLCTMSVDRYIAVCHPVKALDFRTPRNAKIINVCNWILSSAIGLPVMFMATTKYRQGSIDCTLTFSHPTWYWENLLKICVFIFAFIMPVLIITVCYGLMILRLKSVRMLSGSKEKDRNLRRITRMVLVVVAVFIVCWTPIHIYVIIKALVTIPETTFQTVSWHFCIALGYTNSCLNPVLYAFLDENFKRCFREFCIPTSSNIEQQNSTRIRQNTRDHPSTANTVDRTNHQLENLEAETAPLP
Field: log10(Ki). Provide a value for each of the compounds that follow.
Hey, these are logged values: log10 of Ki, nM being the unit before logging.

Data request: What measured log10(Ki) is associated with CN(C)C(c1ccccc1)C1CCC(CNC(=O)CC(C)(C)C)CC1 (centres unmarked) on human μ-opiate receptor (Homo sapiens, UniProt P35372)?
Data returned: 0.60

Data request: One more compound: COc1c(C(=O)NCCC2CCC(C(CCc3ccccc3)N(C)C)CC2)csc1Cl (centres unmarked)
Data returned: 1.92

Data request: // query: CN(C)C(c1cccs1)C1CCC(CNC(=O)c2cccc(Br)c2)CC1 (centres unmarked)
Data returned: 0.79

Data request: Here is the next compound: Cc1ccc(Oc2ncccc2C(=O)NCC2CCC(C(c3cccs3)N(C)C)CC2)cc1 (single isomer, unassigned)
Data returned: 1.76

Data request: Similarly, CN(C)C(c1cccs1)C1CCC(CNC(=O)Cc2ccc(Cl)cc2)CC1 (centres unmarked) ?
Data returned: 1.04

---

Provide the reported inhibition at 10 µM of each item.
molecular target: Noradrenaline (NA) reuptake (Rattus norvegicus, UniProt Q63380); construct: synaptosomes are freshly isolated from areas of rat brain; from tissue; host or cells: rat hypothalamus synaptosomes (P2 fraction); test: Noradrenaline (NA) reuptake inhibition in rat brain synaptosomes (hypothalamus, P2 fraction); type: biochemical; settings: read-out: NA reuptake, % inhibition [10 μM]
Sequence (Q63380 1-617): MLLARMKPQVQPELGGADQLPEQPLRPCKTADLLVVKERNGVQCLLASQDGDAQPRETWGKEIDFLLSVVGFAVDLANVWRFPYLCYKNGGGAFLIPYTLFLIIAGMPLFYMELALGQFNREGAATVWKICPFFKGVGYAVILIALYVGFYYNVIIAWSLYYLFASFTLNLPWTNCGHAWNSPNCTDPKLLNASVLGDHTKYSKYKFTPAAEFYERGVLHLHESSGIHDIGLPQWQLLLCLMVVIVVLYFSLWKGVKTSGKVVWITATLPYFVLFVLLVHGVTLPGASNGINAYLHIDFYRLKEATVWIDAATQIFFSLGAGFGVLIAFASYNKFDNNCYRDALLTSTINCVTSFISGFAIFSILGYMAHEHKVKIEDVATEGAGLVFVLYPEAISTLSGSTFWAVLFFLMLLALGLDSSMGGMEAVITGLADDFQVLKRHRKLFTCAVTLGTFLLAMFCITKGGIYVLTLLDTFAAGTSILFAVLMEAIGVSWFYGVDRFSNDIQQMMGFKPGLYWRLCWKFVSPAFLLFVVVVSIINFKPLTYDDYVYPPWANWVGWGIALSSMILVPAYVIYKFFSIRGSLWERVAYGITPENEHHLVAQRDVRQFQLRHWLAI
Where a name gives a salt, the structure may show the parent alone.
Field format: number, assumed %, no unit text.

Data request: For the record Cc1ccc(C(C2CCC(=CC(=O)N(C)Cc3ccccc3)CC2)N2CCCCC2)cc1 (centres unmarked) [compound 496] , what value of inhibition at 10 µM is listed for Noradrenaline (NA) reuptake (Rattus norvegicus, UniProt Q63380)?
Data returned: 26

Data request: Again, but for CN(C)C(c1ccc(F)cc1)C1CCC(CCN)CC1 (centres unmarked) [compound 51]
Data returned: 98

Data request: Request: CN(C)C(CCc1ccccc1)C1CCC(CCN)CC1 (centres unmarked) [compound 72]
Data returned: 91

Data request: Note, next up: CN(C)C(c1ccc(Cl)cc1)C1CCC(CN)CC1 (centres unmarked) [compound 39]
Data returned: 97

Data request: Same question for CN(C)C(c1ccccc1)C1CCC(NCCc2ccccc2)CC1 (centres unmarked) [compound 84, hydrochloride] please.
Data returned: 93

---

biological target: Serotonin (5HT) reuptake (Rattus norvegicus, UniProt P31652); construct: synaptosomes are freshly isolated from areas of rat brain; from tissue; host or cells: rat brain synaptosomes (P2 fraction); assay: Serotonin (5HT) reuptake inhibition in rat brain synaptosomes (P2 fraction); type: biochemical; conditions: read-out: Serotonin reuptake, % inhibition [10 μM]
Sequence (P31652 whole entry): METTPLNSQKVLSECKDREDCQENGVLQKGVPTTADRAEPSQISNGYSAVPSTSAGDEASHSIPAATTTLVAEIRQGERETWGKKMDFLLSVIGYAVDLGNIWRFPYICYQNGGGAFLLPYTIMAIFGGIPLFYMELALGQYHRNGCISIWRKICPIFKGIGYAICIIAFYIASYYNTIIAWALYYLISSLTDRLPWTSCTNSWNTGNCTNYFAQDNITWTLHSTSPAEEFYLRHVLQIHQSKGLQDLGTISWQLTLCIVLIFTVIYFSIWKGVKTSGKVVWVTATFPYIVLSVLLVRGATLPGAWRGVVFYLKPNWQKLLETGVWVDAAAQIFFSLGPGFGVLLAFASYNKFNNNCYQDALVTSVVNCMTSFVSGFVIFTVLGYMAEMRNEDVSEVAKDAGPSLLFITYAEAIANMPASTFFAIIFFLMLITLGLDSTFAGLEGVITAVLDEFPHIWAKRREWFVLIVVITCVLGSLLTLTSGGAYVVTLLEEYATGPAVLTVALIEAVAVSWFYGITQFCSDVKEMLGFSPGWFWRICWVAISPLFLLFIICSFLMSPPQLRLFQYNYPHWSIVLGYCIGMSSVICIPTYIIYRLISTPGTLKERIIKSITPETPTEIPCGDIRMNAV
Where a name gives a salt, the structure may show the parent alone.
PARAMETER_MEASURED: inhibition at 10 µM (%)
# output: bare number, implied unit %

Data request: // lookup inhibition at 10 µM for COc1ccc(S(=O)(=O)NC2CCC(C(c3ccccc3)N(C)C)CC2)cc1 (stereo not drawn) [compound 107, hydrochloride]
Data returned: 90

Data request: Another molecule to check: CN(C)C(c1ccccc1)C1CCC(NCCc2c[nH]c3ccccc23)CC1 (stereo not drawn) [compound 83, hydrochloride]
Data returned: 93

Data request: What about this molecule? CC(=O)N(Cc1ccccc1)C1CCC(C(c2ccccc2)N(C)C)CC1 (stereo not drawn) [compound 100, hydrochloride]
Data returned: 86

Data request: Another molecule to check: CCOC(=O)C=CC1CCC(C(c2cccc(F)c2)N(C)C)CC1 (stereo not drawn) [compound 138]
Data returned: 84

Data request: Record: CCOC(=O)C=C1CCC(C(c2ccc(F)cc2)N(C)C)CC1 (stereo not drawn) [compound 126]
Data returned: 86

Data request: CCOC(=O)C=C1CCC(C(c2cccc(F)c2)N(C)C)CC1 (stereo not drawn) [compound 129] , same question.
Data returned: 91

Data request: Try this molecule next: CN(C)C(c1ccccc1)C1CCC(NC(=O)Nc2ccc(Br)cc2)CC1 (stereo not drawn) [compound 81]
Data returned: 97

Data request: How about this molecule: CN(C)C(CCc1ccccc1)C1CCC(C=O)CC1 (stereo not drawn) [compound 43]
Data returned: 80

Data request: Same thing, different molecule: CN(C)C(c1ccccc1)C1CCC(NC(=O)Nc2cccc3ccccc23)CC1 (stereo not drawn) [compound 73]
Data returned: 90

---

molecular target: Noradrenaline (NA) reuptake (Rattus norvegicus, UniProt Q63380); construct: synaptosomes are freshly isolated from areas of rat brain; from tissue; host or cells: rat hypothalamus synaptosomes (P2 fraction); test: Noradrenaline (NA) reuptake inhibition in rat brain synaptosomes (hypothalamus, P2 fraction); assay type: biochemical; settings: read-out: NA reuptake, % inhibition [10 μM]
Counter-ions that a name gives are not always drawn.
Use 1 when the recorded inhibition at 10 µM is no lower than 80%; use -1 when it is lower.

Data request: Threshold query (inhibition at 10 µM >= 80%) on CN(C)C(c1ccccc1)C1CCC(OCc2ccc(F)cc2)CC1 (centres unmarked) [compound 145, hydrochloride]
Data returned: 1

Data request: Next record, please: CN(C)C(c1cccc(F)c1)C1CCC(NC(=O)c2nc(-c3ccccc3)no2)CC1 (centres unmarked) [compound 499]
Data returned: 1

Data request: And CN(C)C(c1cccs1)C1CCC(CO)CC1 (centres unmarked) [compound 121] ?
Data returned: -1

Data request: What do we get for CN(C)C(c1ccc(Cl)cc1)C1CCC(N)CC1 (centres unmarked) [compound 23] ?
Data returned: 1

Data request: And what about the compound CN(C)C(c1cccs1)C1CCC(C=O)CC1 (centres unmarked) [compound 40] ?
Data returned: -1

Data request: Same thing, different compound: CN(C)C(c1ccccc1)C1CCC(NC(=O)NC2CCCCC2)CC1 (centres unmarked) [compound 80]
Data returned: 1

Data request: // repeat for CCOC(=O)CCC1CCC(C(c2ccc(F)cc2)N(C)C)CC1 (centres unmarked) [compound 136] and report
Data returned: 1

Data request: Quick one: CN(C)C(c1cccc(F)c1)C1CCC(CCCO)CC1 (centres unmarked) [compound 140]
Data returned: 1

Data request: How about O=C(C=C1CCC(C(Cc2ccccc2)N2CCCC2)CC1)NCc1ccccn1 (centres unmarked) [compound 495] ?
Data returned: -1

Data request: Cool, now CN(C)C(c1ccccc1)C1CCC(OCc2ccccc2)CC1 (centres unmarked) [compound 144, hydrochloride]
Data returned: -1

---

biological target: human μ-opiate receptor (Homo sapiens); assay: Affinity for the human μ-opiate receptor ([3H]-naloxone displacement, SPA, CHO-K1 membrane preparation); assay type: binding; settings: read-out: μ-Opioid receptor, Ki
Counter-ions that a name gives are not always drawn.
For each of the compounds below, state its pKi.
The meaning of pKi here: minus log10 of the concentration in molar units.

Data request: For the compound shown here, CSc1ncccc1C(=O)NCC1CCC(C(c2ccc(F)cc2)N(C)C)CC1 (centres unmarked) , give the reported pKi.
Data returned: 7.00

Data request: Now the same for CN(C)C(c1ccccc1)C1CCC(NC(=O)c2c(F)ccc(F)c2F)CC1 (centres unmarked)
Data returned: 7.52

Data request: Thanks! And Cc1oc(-c2ccccc2)cc1C(=O)NCCC1CCC(C(c2ccccc2)N(C)C)CC1 (centres unmarked) ?
Data returned: 7.21

Data request: Try CN(C)C(c1ccccc1)C1CCC(CNC(=O)c2cccnc2Cl)CC1 (centres unmarked) next.
Data returned: 6.92

Data request: Then what about the compound CN(C)C(c1cccs1)C1CCC(CNC(=O)c2cccc(C#N)c2)CC1 (centres unmarked) ?
Data returned: 7.59

Data request: Field entry: CN(C)C(c1cccs1)C1CCC(CCNC(=O)c2cccc(Cl)c2)CC1 (centres unmarked)
Data returned: 8.57

Data request: Same question for CN(C)C(c1ccccc1)C1CCC(NC(=O)COc2ccc(Cl)cc2)CC1 (centres unmarked) please.
Data returned: 7.20

Data request: Next up: CN(C)C(c1ccccc1)C1CCC(NC(=O)C2CCCC2)CC1 (centres unmarked)
Data returned: 6.80

Data request: Follow-up item: Cc1cccc(C(=O)NCCC2CCC(C(c3cccs3)N(C)C)CC2)c1 (centres unmarked)
Data returned: 8.36

Data request: Also CN(C)C(c1ccc(Cl)cc1)C1CCC(CNC(=O)c2cccc(C(F)(F)F)c2)CC1 (centres unmarked) ?
Data returned: 7.17

Data request: Again, but for CN(C)C(CCc1ccccc1)C1CCC(NC(=O)c2ccc(F)c(C(F)(F)F)c2)CC1 (single isomer, unassigned) [compound 210]
Data returned: 7.62

Data request: COc1c(C(=O)NCC2CCC(C(c3ccc(F)cc3)N(C)C)CC2)csc1Cl (centres unmarked) , same question.
Data returned: 7.40

Data request: Subsequent entry: CN(C)C(c1ccc(Cl)cc1)C1CCC(CCNC(=O)c2ccc(F)c(F)c2)CC1 (centres unmarked)
Data returned: 7.16

Data request: // repeat for CN(C)C(c1cccc(F)c1)C1CCC(CNC(=O)c2ccc(F)c(C(F)(F)F)c2)CC1 (centres unmarked) and report
Data returned: 7.43

Data request: And CN(C)C(c1cccc(F)c1)C1CCC(CNC(=O)c2cccs2)CC1 (single isomer, unassigned) [compound 334] ?
Data returned: 7.21

Data request: Similarly, CCC(CC)C(=O)N(c1ccccc1)C1CCC(C(c2ccccc2)N(C)C)CC1 (centres unmarked) [compound 105, hydrochloride] ?
Data returned: 7.70

Data request: Another compound to check: COc1c(C(=O)NCC2CCC(C(c3ccccc3)N(C)C)CC2)csc1Cl (centres unmarked)
Data returned: 8.34
